# tested target: HCV NS3/4A protease (Hepatitis C virus genotype 1a, UniProt P27958)
# Sequence (P27958 1027-1657): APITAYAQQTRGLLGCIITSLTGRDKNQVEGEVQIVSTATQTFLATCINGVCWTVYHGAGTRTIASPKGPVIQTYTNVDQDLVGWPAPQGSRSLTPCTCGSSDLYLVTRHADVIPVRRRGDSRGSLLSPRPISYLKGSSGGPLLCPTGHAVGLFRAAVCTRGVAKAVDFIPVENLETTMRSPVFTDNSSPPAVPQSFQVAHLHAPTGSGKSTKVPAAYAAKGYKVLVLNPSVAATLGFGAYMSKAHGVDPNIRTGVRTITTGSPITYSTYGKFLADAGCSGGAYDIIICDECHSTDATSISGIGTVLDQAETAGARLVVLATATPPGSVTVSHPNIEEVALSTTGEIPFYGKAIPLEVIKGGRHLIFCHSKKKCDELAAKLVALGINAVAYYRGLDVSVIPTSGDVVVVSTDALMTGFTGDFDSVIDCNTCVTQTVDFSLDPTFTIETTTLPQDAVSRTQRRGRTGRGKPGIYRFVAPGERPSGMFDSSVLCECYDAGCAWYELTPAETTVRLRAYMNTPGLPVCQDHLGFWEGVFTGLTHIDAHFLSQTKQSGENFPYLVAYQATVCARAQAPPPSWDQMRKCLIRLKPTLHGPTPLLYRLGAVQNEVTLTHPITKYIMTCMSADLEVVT
# Sequence (P27958 1658-1711): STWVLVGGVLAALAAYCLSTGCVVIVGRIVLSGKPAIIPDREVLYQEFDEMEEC
# measurement protocol: Inhibition against HCV protease
# measurement conditions: HCV NS3/4A protease 0.5 μg/ml, 30 min, room temperature
Items are presented alongside their recorded IC50.
parameter: IC50

compound="O=C(O[C@@H]1Cc2c(O)cc(O)cc2O[C@@H]1c1cc(O)c(O)c(O)c1)c1cc(O)c(O)c(O)c1 [EGCG, Epigallocatechin gallate, reference compound]" tested_target="HCV NS3/4A protease (Hepatitis C virus genotype 1a, UniProt P27958)" observed_measurement="> 200000 nM"
compound="CCCCCCCCCCCCCCCCCC(=O)Oc1cc(C(=O)OC2Cc3c(O)cc(O)cc3OC2c2cc(OC(=O)CCCCCCCCCCCCCCCCC)c(O)c(OC(=O)CCCCCCCCCCCCCCCCC)c2)cc(OC(=O)CCCCCCCCCCCCCCCCC)c1O (centres unmarked) [Compound 1a, EGCG stearate]" tested_target="HCV NS3/4A protease (Hepatitis C virus genotype 1a, UniProt P27958)" observed_measurement="130 nM"
compound="CCCC(=O)Oc1cc(OC(=O)CCC)c2c(c1)OC(c1cc(OC(=O)CCC)c(OC(=O)CCC)c(OC(=O)CCC)c1)C(OC(=O)c1cc(OC(=O)CCC)c(OC(=O)CCC)c(OC(=O)CCC)c1)C2 (centres unmarked) [Compound 1g, EGCG-octabutyrate]" tested_target="HCV NS3/4A protease (Hepatitis C virus genotype 1a, UniProt P27958)" observed_measurement="980 nM"
compound="CCC=CCC=CCC=CCC=CCC=CCCCC(=O)Oc1cc(C(=O)OC2Cc3c(O)cc(O)cc3OC2c2cc(OC(=O)CCCC=CCC=CCC=CCC=CCC=CCC)c(O)c(OC(=O)CCCC=CCC=CCC=CCC=CCC=CCC)c2)cc(OC(=O)CCCC=CCC=CCC=CCC=CCC=CCC)c1O (centres unmarked)" tested_target="HCV NS3/4A protease (Hepatitis C virus genotype 1a, UniProt P27958)" observed_measurement="6 nM"
compound="CCC=CCC=CCC=CCC=CCC=CCC=CCCC(=O)Oc1cc(C(=O)OC2Cc3c(O)cc(O)cc3OC2c2cc(OC(=O)CCC=CCC=CCC=CCC=CCC=CCC=CCC)c(O)c(OC(=O)CCC=CCC=CCC=CCC=CCC=CCC=CCC)c2)cc(OC(=O)CCC=CCC=CCC=CCC=CCC=CCC=CCC)c1O (centres unmarked)" tested_target="HCV NS3/4A protease (Hepatitis C virus genotype 1a, UniProt P27958)" observed_measurement="6 nM"
